FYI, the data here is from patent US11116735B2.

Test system: weanling piglets
EXPERIMENT_SUMMARY: Synergy of derivatives and colistin sulfate in the feed for weanling piglets
Format: in vivo, Duroc×Landrace×Large crossbred lean weanling piglets
EXPERIMENTAL_CONDITIONS: creep feed with 20 ppm colistin sulfate and 150 ppm derivative (hydrochloride), ten days
Can you tell me Diarrhea rate for the items I'm about to list?
One number for each entry, in %.

> print(dat)
                              cpd.smiles  endpoint.name  experimental.value
1  COc1ccc(C=NN=C(N)NN=Cc2ccc(OC)cc2)cc1  Diarrhea rate                  18

Provide reported Diarrhea rate for each item, in the same order as listed.
1. CCC(CC)Oc1ccc(C=NN=C(N)NN=Cc2ccc(OC(CC)CC)cc2)cc1
2. CC(C)Oc1ccc(C=NN=C(N)NN=Cc2ccc(OC(C)C)cc2)cc1
3. CCCCCCCCOc1ccc(C=NNC(=N)NN=Cc2ccc(OCCCCCCCC)cc2)cc1
4. N=C(NN=Cc1ccc(OCc2ccccc2)cc1)NN=Cc1ccc(OCc2ccccc2)cc1
5. N=C(N/N=C/c1ccc(Cl)cc1)N/N=C/c1ccc(Cl)cc1

Result:
1: 25; 2: 8; 3: 19; 4: 16; 5: 33
